assay: Liver microsomes study, Phase I stability (HLM); type: in vitro ADME, human; conditions: pH 7.4; human liver microsomes 0.5 mg/mL, 1 μM test article; read-out: HLM Clint
# microsomal CLint at 1 μM annotations
Provide the reading as a plain figure in µL/min/mg.

Example entries and their recorded answers appear below.
>  <compound>
Cc1cnc(Nc2cnn(C)c2)nc1-c1ccc(C(=O)NCC(C)(C)C#N)cc1 [Example 13]

>  <microsomal CLint at 1 μM (µL/min/mg)>
1.5

$$$$
>  <compound>
Cc1cnc(Nc2cnn(C3CCN(C(=O)C4CC4)CC3)c2)nc1-c1ccc(C(=O)NCC2(C#N)CC2)cc1 [Example 158]

>  <microsomal CLint at 1 μM (µL/min/mg)>
142

$$$$
>  <compound>
CC[C@@H](C#N)NC(=O)c1ccc(-c2nc(Nc3cnn(C4CCN(C)CC4)c3)ncc2C)cc1 [Example 184]

>  <microsomal CLint at 1 μM (µL/min/mg)>
11.4

$$$$

Given the entry N#CCNC(=O)c1ccc(-c2nc(Nc3cnn(C4CC4)c3)ncc2Cl)cn1 [Example 120] , report its measured microsomal CLint at 1 μM. 16.2

For Cc1cnc(Nc2cnn(C3CCN(C(=O)C4(F)CC4)CC3)c2)nc1-c1ccc(C(=O)NCC#N)cc1 [Example 152] then? 96

For Cc1cnc(Nc2cnn(C)c2)nc1-c1ccc(C(=O)NCC2(C#N)CC2)cc1 [Example 12] then? 4.6

For CC[C@@H](C#N)NC(=O)c1ccc(-c2nc(Nc3cnn(CCO)c3)ncc2Cl)cc1 [Example 167] then? 7.06

For Cc1cnc(Nc2cnn([C@H]3CC[C@H](C#N)CC3)c2)nc1-c1ccc(C(=O)N[C@@H](C)C#N)cc1 [Example 154] then? 14.7
